# Test system: NCI-H23 lung
# Assay Explanation: NCI-60 one-dose screen, 48 h
# Measurement Context: 10 µM unless noted
The panel holds about 83,000 compounds, 20% with a hit somewhere; the sample as a whole holds those more often. Calls of active or inactive are those of the source. Rule for the calls: active = growth percent below 10; inactive = the rest.
Outcomes: active, inactive

- Compound: "C#Cc1ccc2c(c1)C(c1ccccc1F)=NCC(=O)N2C"
  Label Class: "inactive"
- Compound: "COC(=O)[C@@H](C)C[C@H](Cc1ccccc1)NC(=O)c1csc([C@@H](C[C@H](C(C)C)N(C)C(=O)[C@@H](NC(=O)[C@H]2CCCCN2C)C2CCCCC2)OC(C)=O)n1"
  Label Class: "inactive"
- Compound: "C[N+](C)(C)Cc1cc(Cl)ccc1O"
  Label Class: "inactive"
- Compound: "C/C(=C\\c1ccn(-c2ccc(N)c(F)c2)n1)[C@@H]1C[C@@H]2O[C@]2(C)CCC[C@H](C)[C@H](O)[C@@H](C)C(=O)C(C)(C)[C@@H](O)CC(=O)O1"
  Label Class: "inactive"
- Compound: "CC(=O)Nc1ccc(NC(=O)c2ccc([As](O)O)cc2)cc1"
  Label Class: "inactive"
- Compound: "O=C1C(N2CC2)=C(N2CC2)C(=O)C(N2CC2)=C1N1CC1"
  Label Class: "active"
- Compound: "O=C1C2C(C(=O)[N]1[Hg][c]1cccs1)C1(Cl)C(Cl)=C(Cl)C2(Cl)C1(Cl)Cl (stereo unspecified)"
  Label Class: "active"
- Compound: "O=[N+]([O-])/C=C\\c1ccc(Cl)c(Cl)c1"
  Label Class: "inactive"
- Compound: "C=C1C[C@](OC)([C@H](O)C(=O)N[C@@H](OC)[C@@H]2C[C@@H](O)C(C)(C)[C@@H](C[C@@H](COC)OC)O2)O[C@H](C)[C@@H]1C"
  Label Class: "active"
- Compound: "CC12CC(=O)C3(SC#N)C(CCC4=CC(=O)CCC43C)C1CCC2=O (stereo unspecified)"
  Label Class: "inactive"
- Compound: "O=C1NC(=O)C(=Cc2cn(C(=O)c3ccccc3)c3ccccc23)C(=O)N1"
  Label Class: "inactive"
